# Tested on: A549
# measurement_description: NCI tumour cell line growth inhibition, 48 h
Active and inactive are the calls of the source. No stated cut-off is given here; in the data, active = GI50 up to about 1.1 µM and inactive = higher.
property: GI50

Entry Cn1c(-c2cccc([N+](=O)[O-])c2)[n+](C)c2ccccc21 , system A549: what GI50 was measured?
46.9 µM (inactive)

Entry O=[N+]([O-])c1cccnc1NCC1(CO)CC(Cc2ccccc2)C1 (stereo unspecified) , system A549: what GI50 was measured?
> 100 µM (inactive)

Entry CC(=O)/C=C1\CC(=O)N(C)c2ccccc2N1 , system A549: what GI50 was measured?
> 100 µM (inactive)

Entry CC1=C(C)C2(C#N)C(=O)N3C(=NC(c4ccco4)NC3c3ccco3)C2(C#N)C(c2ccco2)N1 (stereo unspecified) , system A549: what GI50 was measured?
> 100 µM (inactive)

Entry CS(=O)(=O)OCC1CN(S(C)(=O)=O)c2cc(O)ccc21 (stereo unspecified) , system A549: what GI50 was measured?
3.43 µM (inactive)

Entry COP(C)(=O)/C(Cc1ccccc1)=N\O (stereo unspecified) , system A549: what GI50 was measured?
> 100 µM (inactive)

Entry CN(C)c1ccc(C2CC(=O)CC(c3ccc(N(C)C)cc3)C23C(=O)NC(=S)NC3=O)cc1 (stereo unspecified) , system A549: what GI50 was measured?
> 100 µM (inactive)

Entry S=C(S)N1CCN(c2ccccc2)CC1 , system A549: what GI50 was measured?
> 100 µM (inactive)

Entry COc1ccc([C@@]23CCC(=O)C[C@@H]2N(C)CC3)cc1OC , system A549: what GI50 was measured?
> 100 µM (inactive)

Entry CC(C)C(=O)/C=C/c1ccc(Br)cc1 , system A549: what GI50 was measured?
23.8 µM (inactive)

Entry CC(C)=Cc1cc(C(=O)Nc2ccc(Cl)c(Cl)c2)nc(N)n1 , system A549: what GI50 was measured?
> 100 µM (inactive)

====

# Test system: EKVX
# measurement_description: NCI tumour cell line growth inhibition, 48 h
Active and inactive are the calls of the source. Cut-off read from the data, not from the text of the source: active = GI50 up to about 1.1 µM and inactive = higher. Where a SMILES comes first, the peptide text is derived from it. The star is where a group is joined. Cbz = O=C(OCc1ccccc1)*
property: GI50

For orientation, consider the following solved cases.
compound: COC(=O)[C@]12CC[C@H]3CC[C@H]([C@H]31)[C@H](c1ccccc1)N2
value: 16.8 µM (inactive)

compound: COC(=O)[C@@H](NS(=O)(=O)CC12CCC(CC1)C2(C)C)C(C)(C)C
value: > 100 µM (inactive)

compound: COC(=O)/C(=N/Nc1cccc(Cl)c1)C(C(=O)C(=O)Nc1cccc(Cl)c1C)c1nc2ccccc2nc1C (centres undefined)
value: > 100 µM (inactive)

compound: CC1=NC(=Cc2cccc(Cl)c2)C(=O)N1n1c(-c2ccccc2)nc2ccccc2c1=O
value: 21.2 µM (inactive)

compound: COc1ccc(C(=O)/C=C/c2cccnc2)cc1OC
value: 15.1 µM (inactive)

compound: CCOC(=O)C(CC(=O)OC)NC(=O)C(CC(=O)OC)NC(=O)C(CC(=O)OC)NC(=O)C(CC(=O)OC)NC(=O)OCc1ccccc1 (centres undefined) (Cbz-D(OMe)D(OMe)D(OMe)D(OMe)-OEt; configuration not given here)
value: > 100 µM (inactive)

compound: NC(=O)CCC(CCC(N)=O)(CCC(N)=O)[N+](=O)[O-]
value: > 100 µM (inactive)

compound: COc1cccc(/C=C2\C(=O)N(C(=O)Cc3ccccc3)N=C2C)c1
value: > 100 µM (inactive)

Proceeding to the next compound to report its GI50.
So what's the measured GI50 for this one? C/C(CC/C(C)=N/O)=N\O
> 100 µM (inactive)
